Test system: MCF7 breast
Experiment: NCI tumour cell line growth inhibition, 48 h

>  <compound>
C/C(Nc1ccc(Cl)cc1Cl)=C1/CCOC1=O

>  <TGI>
> 100 µM

$$$$
>  <compound>
CCOC(=O)c1cnccc1CC1(C#N)c2ccccc2C=CN1C(=O)c1ccccc1 (stereo not drawn)

>  <TGI>
> 100 µM

$$$$
>  <compound>
COC(=O)[C@@H]1CN(C(=O)c2ccccc2)C(=O)N1C(=O)OCc1ccccc1

>  <TGI>
> 100 µM

$$$$

---

Tested on: SF-268 CNS
Assay: NCI tumour cell line growth inhibition, 48 h

>  <compound>
COc1cccc(NC(=O)C(=O)C(C(C)=O)c2nc3ccc(Cl)cc3[nH]c2=O)c1 (centres undefined)

>  <TGI>
> 100 µM

$$$$
>  <compound>
C(/Cc1ccc2c(c1)OCO2)=N\NC1=NCCCN1

>  <TGI>
> 100 µM

$$$$
>  <compound>
COC(=O)[C@@H]1CN(C(=O)c2ccccc2)C(=O)N1C(=O)OCc1ccccc1

>  <TGI>
> 100 µM

$$$$
>  <compound>
NC(=O)Cc1nc2c(=O)[nH]cnc2n1C1OC(CO)C(O)C1O (centres undefined)

>  <TGI>
> 100 µM

$$$$
>  <compound>
S=C(NCc1ccccc1)N/N=C/c1ccccn1

>  <TGI>
> 91.4 µM

$$$$
>  <compound>
CCN(CC)c1nc(N(C)C)c2ccccc2n1

>  <TGI>
> 100 µM

$$$$
>  <compound>
Cc1c(C(=O)CSc2nc3ccccc3[nH]2)c(=O)n(-c2ccccc2)n1C

>  <TGI>
> 100 µM

$$$$
>  <compound>
O=C(NCCCCCCCNC(=O)OCc1ccc2c(Cl)cc(Cl)c(O)c2n1)OCc1ccc2c(Cl)cc(Cl)c(O)c2n1

>  <TGI>
2.78 µM

$$$$
>  <compound>
Cc1cc2c(c(=O)n1C)SCC2

>  <TGI>
> 100 µM

$$$$
>  <compound>
CCCCCCCCCCCCCc1nn[nH]n1

>  <TGI>
40.5 µM

$$$$
>  <compound>
COc1cc2c(c(OC)c1OC)-c1ccc(SC)c(=O)cc1[C@@H](NC(=O)c1ccc(Cl)cc1)CC2

>  <TGI>
> 100 µM

$$$$
>  <compound>
CCC(CC(C)C)Nc1ccc(NC(CC)CC(C)C)cc1 (centres undefined)

>  <TGI>
30.6 µM

$$$$
>  <compound>
C#CCC1(C(=O)OCC)C(=O)c2ccccc2N(C)C1=O (centres undefined)

>  <TGI>
> 100 µM

$$$$
>  <compound>
CC1OC(OC2CCC3(C=O)C4CCC5(C)C(C6=CC(=O)OC6)CCC5(O)C4CCC3(O)C2)C(O)C(O)C1O (centres undefined)

>  <TGI>
4.11e-05 µM

$$$$

---

Tested on: OVCAR-8 ovarian
Assay: NCI tumour cell line growth inhibition, 48 h

>  <molecule>
O=C1c2ccccc2-c2[nH]c3cn[nH]c(=O)c3c21

>  <study system>
OVCAR-8 ovarian

>  <TGI>
> 100 µM

$$$$
>  <molecule>
Cc1cc(Cl)ccc1NS(=O)(=O)c1ccc(-c2cnc(C3CC3)o2)cc1

>  <study system>
OVCAR-8 ovarian

>  <TGI>
15.2 µM

$$$$
>  <molecule>
Nc1nc(Cl)cc(NCC2(O)CCCC2)n1

>  <study system>
OVCAR-8 ovarian

>  <TGI>
> 100 µM

$$$$
>  <molecule>
CC(=O)Oc1ccc2c(c1)CC[C@@H]1C2CC[C@]2(C)C(=O)NC(=O)CC12 (stereo not given in full)

>  <study system>
OVCAR-8 ovarian

>  <TGI>
> 100 µM

$$$$
>  <molecule>
Cc1ccc(-c2n[nH]c(=O)n2/N=C\c2ccccc2)cc1

>  <study system>
OVCAR-8 ovarian

>  <TGI>
> 100 µM

$$$$
